target: T1, Human C3 (Complement tech cat #A113c) (human, UniProt P01024 23-1663); assay: SPR (Biacore T200), human C3 immobilised, peptide injected, 1:1 fit
T1 construct: Purified protein immobilised by amine coupling in the SPR assay; in the haemolysis assay it is the C3 of diluted human serum; Native C3 consists of a beta and an alpha chain cut from one precursor; also called C3 protein
T1 sequence (P01024 23-1663 limits assumed): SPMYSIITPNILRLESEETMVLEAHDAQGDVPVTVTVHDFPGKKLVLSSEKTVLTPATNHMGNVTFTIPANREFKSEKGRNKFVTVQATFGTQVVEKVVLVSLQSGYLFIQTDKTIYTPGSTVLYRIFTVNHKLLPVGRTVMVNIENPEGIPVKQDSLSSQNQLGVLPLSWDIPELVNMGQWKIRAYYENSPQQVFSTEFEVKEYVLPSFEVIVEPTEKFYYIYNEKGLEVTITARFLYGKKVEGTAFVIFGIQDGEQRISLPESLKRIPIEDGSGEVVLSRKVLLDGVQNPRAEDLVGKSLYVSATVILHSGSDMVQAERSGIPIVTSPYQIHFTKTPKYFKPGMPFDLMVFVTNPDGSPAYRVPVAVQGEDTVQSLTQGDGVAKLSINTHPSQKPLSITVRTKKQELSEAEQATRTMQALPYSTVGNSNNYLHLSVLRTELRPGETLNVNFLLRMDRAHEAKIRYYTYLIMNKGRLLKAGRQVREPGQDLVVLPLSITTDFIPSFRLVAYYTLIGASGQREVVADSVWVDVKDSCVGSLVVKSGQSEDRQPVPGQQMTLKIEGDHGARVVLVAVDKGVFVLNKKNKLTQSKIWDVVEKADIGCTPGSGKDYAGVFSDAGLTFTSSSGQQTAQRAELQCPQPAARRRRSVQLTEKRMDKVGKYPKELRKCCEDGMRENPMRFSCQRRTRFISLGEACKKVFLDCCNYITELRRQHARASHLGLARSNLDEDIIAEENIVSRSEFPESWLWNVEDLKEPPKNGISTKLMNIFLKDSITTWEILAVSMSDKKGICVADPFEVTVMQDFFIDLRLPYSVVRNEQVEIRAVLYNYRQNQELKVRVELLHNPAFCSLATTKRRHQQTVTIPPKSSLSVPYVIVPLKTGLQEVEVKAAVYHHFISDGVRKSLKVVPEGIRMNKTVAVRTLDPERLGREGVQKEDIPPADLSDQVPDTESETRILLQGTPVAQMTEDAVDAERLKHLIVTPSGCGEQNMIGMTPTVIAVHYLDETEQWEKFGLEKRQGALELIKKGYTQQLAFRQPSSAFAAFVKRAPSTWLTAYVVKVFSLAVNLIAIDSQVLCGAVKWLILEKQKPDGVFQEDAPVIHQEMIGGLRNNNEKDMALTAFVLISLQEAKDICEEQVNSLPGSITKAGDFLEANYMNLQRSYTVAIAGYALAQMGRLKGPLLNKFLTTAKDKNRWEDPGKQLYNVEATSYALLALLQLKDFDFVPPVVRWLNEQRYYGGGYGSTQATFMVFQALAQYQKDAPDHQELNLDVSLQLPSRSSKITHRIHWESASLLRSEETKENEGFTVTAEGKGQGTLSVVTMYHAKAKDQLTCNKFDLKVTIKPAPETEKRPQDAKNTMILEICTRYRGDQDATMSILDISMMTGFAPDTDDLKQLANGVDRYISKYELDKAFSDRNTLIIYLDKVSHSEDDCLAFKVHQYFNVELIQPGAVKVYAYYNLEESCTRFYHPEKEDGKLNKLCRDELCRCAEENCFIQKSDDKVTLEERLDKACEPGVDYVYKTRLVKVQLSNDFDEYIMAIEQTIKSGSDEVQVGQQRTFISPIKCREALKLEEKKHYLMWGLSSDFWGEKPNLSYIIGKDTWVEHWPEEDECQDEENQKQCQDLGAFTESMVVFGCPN
Positions of bridges follow the written chain, without caps; N, C: chain ends. Non-standard residues stand in square brackets, D forms with d. Trp(1-Me) = Cn1cc(C[C@H](N)C(=O)O)c2ccccc21; Sar = CNCC(=O)O
Recorded Kd for the following binders
Your answer is read as nM, so omit the unit and give the number.

>  <binder>
Ac-SE[Sar]CI[Trp(1-Me)]QDWGEHRC[Sar]EA-NH2 (disulfide 4-14; SMILES CC[C@H](C)[C@@H]1NC(=O)[C@@H](NC(=O)CN(C)C(=O)[C@H](CCC(=O)O)NC(=O)[C@H](CO)NC(C)=O)CSSC[C@@H](C(=O)N(C)CC(=O)N[C@@H](CCC(=O)O)C(=O)N[C@@H](C)C(N)=O)NC(=O)[C@H](CCCNC(=N)N)NC(=O)[C@H](Cc2c[nH]cn2)NC(=O)[C@H](CCC(=O)O)NC(=O)CNC(=O)[C@H](Cc2c[nH]c3ccccc23)NC(=O)[C@H](CC(=O)O)NC(=O)[C@H](CCC(N)=O)NC(=O)[C@H](Cc2cn(C)c3ccccc23)NC1=O) [Compound 81]

>  <units text>
nM

>  <quantitative result>
9.7

$$$$

--- query ---
Q) Identify measured Kd corresponding to Ac-EGSAICIWQDWGEHRC[Sar]E-NH2 (disulfide 6-16; SMILES CC[C@H](C)[C@H](NC(=O)[C@H](C)NC(=O)[C@H](CO)NC(=O)CNC(=O)[C@H](CCC(=O)O)NC(C)=O)C(=O)N[C@H]1CSSC[C@@H](C(=O)N(C)CC(=O)N[C@@H](CCC(=O)O)C(N)=O)NC(=O)[C@H](CCCNC(=N)N)NC(=O)[C@H](Cc2c[nH]cn2)NC(=O)[C@H](CCC(=O)O)NC(=O)CNC(=O)[C@H](Cc2c[nH]c3ccccc23)NC(=O)[C@H](CC(=O)O)NC(=O)[C@H](CCC(N)=O)NC(=O)[C@H](Cc2c[nH]c3ccccc23)NC(=O)[C@H]([C@@H](C)CC)NC1=O) [Compound 28]
A) 44
